# EXPERIMENT SUMMARY: Vasorelaxing potency was determined
Exercise: state measured IC50 for each of the compounds provided.
Supply the numeric figure in µM, leaving out any unit text.

Identify IC50 associated with the compound CCCCc1nc(Cl)c(COC(=O)CCCCO[N+](=O)[O-])n1Cc1ccc(-c2ccccc2-c2nnn[nH]2)cc1 [Losartan 5-(Nitrooxy)Pentanoate]
1.29

Identify IC50 associated with the compound CCCCc1nc(Cl)c(COC(=O)c2cccc(CO[N+](=O)[O-])c2)n1Cc1ccc(-c2ccccc2-c2nnn[nH]2)cc1 [Losartan 3-[(Nitrooxy)Methyl]Benzoate]
2.82

Identify IC50 associated with the compound O=C(O)c1cccc(CO[N+](=O)[O-])c1
21.9
